Test: Oral bioavailability in Wistar Han rat at 2 mg/kg
Format: ADME, organism-based
Conditions: in vivo
Value type: bioavailability

[
  {
    "Smiles text": "COc1ccc(F)c(-c2ccc3c(c2)CC[C@H]3Oc2cccc([C@H](C3CC3)[C@H](C)C(=O)O)c2)c1",
    "Value type": "bioavailability",
    "Result": "81%"
  },
  {
    "Smiles text": "COc1cc(-c2ccc3c(c2)CC[C@H]3Oc2cccc([C@H](C3CC3)[C@H](C)C(=O)O)c2F)c(F)cn1",
    "Value type": "bioavailability",
    "Result": "> 100%"
  },
  {
    "Smiles text": "COc1cc(-c2ccc3c(c2)CC[C@H]3Oc2cccc([C@H](C3CC3)[C@H](C)C(=O)O)c2)c(F)cn1",
    "Value type": "bioavailability",
    "Result": "54%"
  },
  {
    "Smiles text": "COc1ccc(F)c(-c2ccc3c(c2)CC[C@H]3Oc2cccc([C@H](C3CC3)[C@H](C)C(=O)O)c2F)c1",
    "Value type": "bioavailability",
    "Result": "> 100%"
  }
]
